All figures here come from patent US5085991A.

Please respond with reported activity at 200 µg/mL for every item in the list.
Molecular target: UniProtKB P0A879
Sequence (P0A879 2-397): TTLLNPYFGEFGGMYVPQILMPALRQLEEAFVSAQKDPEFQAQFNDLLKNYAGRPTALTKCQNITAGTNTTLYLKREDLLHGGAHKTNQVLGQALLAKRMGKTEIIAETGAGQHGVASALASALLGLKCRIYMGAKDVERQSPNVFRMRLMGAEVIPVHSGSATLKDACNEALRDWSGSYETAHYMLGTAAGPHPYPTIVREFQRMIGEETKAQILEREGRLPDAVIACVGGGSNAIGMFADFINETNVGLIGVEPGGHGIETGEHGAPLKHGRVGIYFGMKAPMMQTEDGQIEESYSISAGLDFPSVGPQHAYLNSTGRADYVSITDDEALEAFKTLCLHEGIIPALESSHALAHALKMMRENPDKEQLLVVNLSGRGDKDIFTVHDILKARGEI
Sequence (P0A877 whole entry, further chain): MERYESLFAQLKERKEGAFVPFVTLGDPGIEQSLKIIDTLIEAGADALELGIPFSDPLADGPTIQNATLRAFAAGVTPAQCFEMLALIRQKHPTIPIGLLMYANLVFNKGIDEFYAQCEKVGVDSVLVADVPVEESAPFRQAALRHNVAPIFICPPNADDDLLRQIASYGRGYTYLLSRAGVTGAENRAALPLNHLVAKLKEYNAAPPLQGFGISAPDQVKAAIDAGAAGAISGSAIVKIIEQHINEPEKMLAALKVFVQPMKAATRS
Assay: Activity of immobilized tryptophan synthase source after standing in aqueous solutions of organic impurities
Type: biochemical, Escherichia coli MT-10232 (FERM BP-19)
Conditions: 24 h; impurity 200 ppm, 30° C., pH 8.5; ratio to enzyme left in reference solution without organic substance; read-out: Activity Ratio 24 Hours Later
Experimental: Escherichia coli MT-10232 (FERM BP-19), which is a tryptophan synthase-producing bacterium, was inoculated to 100 ml of the culture medium having the composition shown in Table 2 in a 500 ml flask, and was incubated at 35° C. for 24 hours. […] Twenty four hours later and 96 hours later, 1 g of immobilized enzyme source was removed from each of the solutions and the enzyme activity was determined. […] The enzyme activity was determined as follows: […]
One number for each entry, in %.

Respectfully, I request activity at 200 µg/mL for each entry included below.
1. CCc1ccccc1N
2. CCNc1ccccc1
3. Cc1c[nH]c2ccccc12
4. Cc1ccccc1N

1. 90
2. 104
3. 94
4. 97

Respectfully, I request activity at 200 µg/mL for each entry included below.
1. Nc1ccccc1
2. CCc1cc2ccccc2[nH]1

1. 98
2. 68
